- TEST_SYSTEM: panel of 203 kinases (Homo sapiens, UniProt P54756)
- Construct: purchased DiscoverX (KINOMEscan)
- Sequence (P54756 25-1037): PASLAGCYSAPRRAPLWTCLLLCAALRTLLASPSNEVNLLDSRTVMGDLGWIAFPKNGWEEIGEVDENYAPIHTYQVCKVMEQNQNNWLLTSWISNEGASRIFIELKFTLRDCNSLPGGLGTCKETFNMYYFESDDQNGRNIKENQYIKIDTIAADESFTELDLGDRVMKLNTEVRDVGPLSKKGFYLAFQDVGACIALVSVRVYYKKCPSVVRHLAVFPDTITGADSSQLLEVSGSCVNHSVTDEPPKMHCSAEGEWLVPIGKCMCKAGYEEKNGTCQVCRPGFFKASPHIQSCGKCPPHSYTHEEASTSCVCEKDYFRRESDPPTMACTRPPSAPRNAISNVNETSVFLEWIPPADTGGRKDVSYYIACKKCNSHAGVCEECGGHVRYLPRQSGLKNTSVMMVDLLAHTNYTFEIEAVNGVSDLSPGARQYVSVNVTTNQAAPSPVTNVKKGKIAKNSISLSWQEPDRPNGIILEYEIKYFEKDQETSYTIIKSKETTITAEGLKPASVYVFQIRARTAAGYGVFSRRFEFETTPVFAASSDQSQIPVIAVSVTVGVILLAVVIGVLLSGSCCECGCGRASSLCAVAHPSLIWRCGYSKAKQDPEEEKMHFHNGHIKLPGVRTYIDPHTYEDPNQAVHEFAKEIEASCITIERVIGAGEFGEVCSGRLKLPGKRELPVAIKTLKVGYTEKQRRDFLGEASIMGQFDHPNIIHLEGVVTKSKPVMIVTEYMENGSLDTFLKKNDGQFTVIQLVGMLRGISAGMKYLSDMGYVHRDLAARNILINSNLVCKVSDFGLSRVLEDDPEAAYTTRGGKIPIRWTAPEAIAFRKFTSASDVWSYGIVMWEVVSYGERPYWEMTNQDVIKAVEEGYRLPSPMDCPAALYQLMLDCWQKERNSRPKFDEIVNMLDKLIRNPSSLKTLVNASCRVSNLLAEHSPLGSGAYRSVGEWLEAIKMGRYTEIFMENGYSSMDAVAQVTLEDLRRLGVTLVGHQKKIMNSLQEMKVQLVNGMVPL
- EXPERIMENT_SUMMARY: KINOMEscan competitive binding, whole panel
- REPORTED_CONDITIONS: 10 µM, n=1; kinase EPHA5; read-out: Percent inhibition EPHA5
Measured inhibition at 10 µM accompanies every entry in the list below.
RECORDED_ENDPOINT: inhibition at 10 µM (%)

* c1ccc(COc2cccc(-c3ccnc4[nH]ccc34)c2)cc1 [Compound 9] | 0
* Cc1ccc(O)cc1N(C)c1ccnc(Nc2cccc(S(N)(=O)=O)c2)n1 [Compound 4] | 100
* Clc1ccc(Nc2ncc(-c3ccccc3)s2)cc1 [Compound 10] | 0
* COc1ccc(Nc2nccc(-c3cnn4ncccc34)n2)cc1 [Compound 2] | 91.8
* COc1cc(Nc2nccc(-c3sc(N)nc3-c3cccc(NC(=O)c4c(F)cccc4F)c3)n2)cc(OC)c1OC [Compound 7] | 100

###

- TEST_SYSTEM: PTK2 (Homo sapiens)
- Construct: purchased DiscoverX (KINOMEscan)
- Sequence (Q05397 whole entry): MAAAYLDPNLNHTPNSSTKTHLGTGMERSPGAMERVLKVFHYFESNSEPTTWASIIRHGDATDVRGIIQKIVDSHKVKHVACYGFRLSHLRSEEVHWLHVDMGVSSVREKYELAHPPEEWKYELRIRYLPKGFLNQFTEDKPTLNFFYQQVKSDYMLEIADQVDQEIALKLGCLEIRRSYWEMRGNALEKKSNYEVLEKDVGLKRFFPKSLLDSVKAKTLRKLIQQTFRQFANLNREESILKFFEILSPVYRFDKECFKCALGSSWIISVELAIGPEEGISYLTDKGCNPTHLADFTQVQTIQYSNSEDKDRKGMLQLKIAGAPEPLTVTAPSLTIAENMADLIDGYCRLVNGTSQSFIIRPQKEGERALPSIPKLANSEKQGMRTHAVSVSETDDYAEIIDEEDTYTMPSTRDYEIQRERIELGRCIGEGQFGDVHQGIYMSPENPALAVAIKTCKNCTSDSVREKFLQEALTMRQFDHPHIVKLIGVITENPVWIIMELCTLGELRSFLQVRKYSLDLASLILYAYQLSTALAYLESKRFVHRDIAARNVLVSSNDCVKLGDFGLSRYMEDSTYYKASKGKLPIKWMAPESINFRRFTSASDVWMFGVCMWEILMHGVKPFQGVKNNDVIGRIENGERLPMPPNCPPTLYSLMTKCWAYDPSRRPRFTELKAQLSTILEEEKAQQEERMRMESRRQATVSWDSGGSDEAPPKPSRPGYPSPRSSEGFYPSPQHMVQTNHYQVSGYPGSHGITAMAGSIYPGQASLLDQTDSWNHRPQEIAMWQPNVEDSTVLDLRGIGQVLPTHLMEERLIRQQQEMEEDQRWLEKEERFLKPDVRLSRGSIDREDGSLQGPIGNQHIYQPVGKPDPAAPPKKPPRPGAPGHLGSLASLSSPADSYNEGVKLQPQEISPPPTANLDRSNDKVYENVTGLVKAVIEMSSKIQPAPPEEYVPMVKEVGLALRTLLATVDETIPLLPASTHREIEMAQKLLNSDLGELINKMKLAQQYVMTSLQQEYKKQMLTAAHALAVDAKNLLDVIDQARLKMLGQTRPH
- EXPERIMENT_SUMMARY: KINOMEscan competitive binding
- REPORTED_CONDITIONS: n=1, read-out: Percent inhibition, PTK2
RECORDED_ENDPOINT: inhibition at 10 µM (%)

- c1ccc(COc2cccc(-c3ccnc4[nH]ccc34)c2)cc1 [Compound 9]: 0
- Cc1ccc(O)cc1Nc1ccnc(Nc2cccc(C(N)=O)c2)n1 [Compound 3]: 0
- CN1CCN(c2ccc(Nc3nccc(-c4cnn5ncccc45)n3)cc2C#N)CC1 [Compound 1]: 87.2
- COc1ccc(Nc2nccc(-c3cnn4ncccc34)n2)cc1 [Compound 2]: 99.3
- C[C@@H](Oc1cc(-c2cnc3ccccn23)sc1C(N)=O)c1ccccc1Cl [Compound 8]: 0
- Fc1cccc(COc2ccc(Nc3ncnc4c3CN(CCN3CCOCC3)CC4)cc2Cl)c1 [Compound 6]: 0
- Clc1ccc(Nc2ncc(-c3ccccc3)s2)cc1 [Compound 10]: 0
- Cc1ccc(O)cc1N(C)c1ccnc(Nc2cccc(S(N)(=O)=O)c2)n1 [Compound 4]: 93.4
- Nc1ncc2c(-c3ccncc3)c[nH]c2n1 [Compound 11]: 0
- COc1cc(Nc2nccc(-c3sc(N)nc3-c3cccc(NC(=O)c4c(F)cccc4F)c3)n2)cc(OC)c1OC [Compound 7]: 97

###

- TEST_SYSTEM: panel of 203 kinases (Homo sapiens)
- Construct: purchased DiscoverX (KINOMEscan)
- EXPERIMENT_SUMMARY: KINOMEscan competitive binding, whole panel
- REPORTED_CONDITIONS: 10 µM, n=1; kinase MST3; read-out: Percent inhibition MST3
Short version: inhibition at 10 µM at least 70% is YES, less is NO.

- CN1CCN(c2ccc(Nc3nccc(-c4cnn5ncccc45)n3)cc2C#N)CC1: YES
- COc1cc(Nc2nccc(-c3sc(N)nc3-c3cccc(NC(=O)c4c(F)cccc4F)c3)n2)cc(OC)c1OC: YES
- Cc1ccc(O)cc1N(C)c1ccnc(Nc2cccc(S(N)(=O)=O)c2)n1: NO
- C[C@@H](Oc1cc(-c2cnc3ccccn23)sc1C(N)=O)c1ccccc1Cl: NO
- Cc1ccc(O)cc1Nc1ccnc(Nc2cccc(C(N)=O)c2)n1: NO
- Fc1cccc(COc2ccc(Nc3ncnc4c3CN(CCN3CCOCC3)CC4)cc2Cl)c1: NO
- c1ccc(COc2cccc(-c3ccnc4[nH]ccc34)c2)cc1: NO
- Clc1ccc(Nc2ncc(-c3ccccc3)s2)cc1: NO
